# Test system: CN0375-F725-PDC KRAS spheroid viability
# EXPERIMENT DESCRIPTION: Anticancer human tumor CN0375-F725-PDC patient-derived colon carcinoma cell line growth inhibition [KRAS2]
# PARTICULARS: second compound 0.316 µM; first compound 3.16 µM; hits give low values; spheroids with HUVEC and MSC
In this section, each of the compounds is paired with its reported viability, T/C.

[[record]]
compound = "CC(C)NCC(C(=O)N1CCN(c2ncnc3c2C(C)CC3O)CC1)c1ccc(Cl)cc1 (centres undefined) + C=CC(=O)N1CCN(c2nc(=O)n(-c3c(C)ccnc3C(C)C)c3nc(-c4c(O)cccc4F)c(F)cc23)C(C)C1"
tested_on = "CN0375-F725-PDC KRAS spheroid viability"
observed_measurement = "89.6%"

[[record]]
compound = "COC(=O)c1ccc2c(C(=Nc3ccc(N(C)C(=O)CN4CCN(C)CC4)cc3)c3ccccc3)c(O)[nH]c2c1 + C=CC(=O)N1CCN(c2nc(=O)n(-c3c(C)ccnc3C(C)C)c3nc(-c4c(O)cccc4F)c(F)cc23)C(C)C1"
tested_on = "CN0375-F725-PDC KRAS spheroid viability"
observed_measurement = "34.2%"


Sample COC(=O)c1ccc2c(C(=Nc3ccc(N(C)C(=O)CN4CCN(C)CC4)cc3)c3ccccc3)c(O)[nH]c2c1 + COc1cc2nc(C)nc(NC(C)c3cc(N)cc(C(F)(F)F)c3)c2cc1OC1CCOC1 — what was its viability, T/C?
55.4%

Moving on to the next compound: CC1OCC2(CCN(c3cnc(Sc4ccnc(N)c4Cl)c(N)n3)CC2)C1N (centres undefined) + C=CC(=O)N1CCN(c2nc(OCC3CCCN3C)nc3c2CCN(c2cccc4cccc(C)c24)C3)CC1CC#N
71.4%

###

# Test system: CN0375-F725-PDC KRAS spheroid viability
# EXPERIMENT DESCRIPTION: Anticancer human tumor CN0375-F725-PDC cell line growth inhibition [KRAS2];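 also: spheroids exposed to agents for 7 days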
# PARTICULARS: second compound 3.16 µM; first compound 0.01 µM; hits give low values; spheroids with HUVEC and MSC
# Source text: Multicellular complex tumor spheroid response to RAS pathway inhibitors in combination with a targeted agents in patient-derived cell lines with oncogenic KRAS variants from multiple cancer types A high-throughput screen of multi-cell type tumor spheroids was designed to identify active combinations of targeted small molecules and KRAS pathway inhibitors. […] Compounds. […] If the clinical Cmax for an agent had not been determined, the highest concentration tested was 10 microM. […]
In this section, each of the molecules is paired with its reported viability, T/C.

Worked cases, answers included:
[[record]]
molecule = "CC1COCCN1c1cc(-c2ccnn2C)c2ccnc(-c3ccn[nH]3)c2n1 (stereo not drawn) + C=CC(=O)N1CCN(c2nc(OCC3CCCN3C)nc3c2CCN(c2cccc4cccc(C)c24)C3)CC1CC#N"
observed_measurement = "36.8%"

[[record]]
molecule = "CC(C)n1nc(-c2ccc3oc(N)nc3c2)c2c(N)ncnc21 + C=CC(=O)N1CCN(c2nc(=O)n(-c3c(C)ccnc3C(C)C)c3nc(-c4c(O)cccc4F)c(F)cc23)C(C)C1"
observed_measurement = "64.5%"

[[record]]
molecule = "CC(C)n1nc(-c2ccc3oc(N)nc3c2)c2c(N)ncnc21 + COc1cc2nc(C)nc(NC(C)c3cc(N)cc(C(F)(F)F)c3)c2cc1OC1CCOC1"
observed_measurement = "59%"

[[record]]
molecule = "CC1COCCN1c1cc(-c2ccnn2C)c2ccnc(-c3ccn[nH]3)c2n1 (stereo not drawn) + COc1cc2nc(C)nc(NC(C)c3cc(N)cc(C(F)(F)F)c3)c2cc1OC1CCOC1"
observed_measurement = "87.5%"

[[record]]
molecule = "CC(=O)Nc1cccc(-n2c(=O)n(C3CC3)c(=O)c3c(Nc4ccc(I)cc4F)n(C)c(=O)c(C)c32)c1 + CC1OCC2(CCN(c3cnc(Sc4ccnc(N)c4Cl)c(N)n3)CC2)C1N"
observed_measurement = "31.4%"


Sample CCN1CCN(Cc2ccc(Nc3ncc(F)c(-c4cc(F)c5nc(C)n(C(C)C)c5c4)n3)nc2)CC1 + C=CC(=O)N1CCN(c2nc(OCC3CCCN3C)nc3c2CCN(c2cccc4cccc(C)c24)C3)CC1CC#N — what was its viability, T/C?
31.3%

Moving on to the next molecule: CN(C)C/C=C/C(=O)Nc1cc2c(Nc3ccc(F)c(Cl)c3)ncnc2cc1O[C@H]1CCOC1 + C=CC(=O)N1CCN(c2nc(OCC3CCCN3C)nc3c2CCN(c2cccc4cccc(C)c24)C3)CC1CC#N
9.52%

Moving on to the next molecule: CC(=O)OC12COC1CC(O)C1(C)C(=O)C(O)C3=C(C)C(OC(=O)C(O)C(NC(=O)OC(C)(C)C)c4ccccc4)CC(O)(C(OC(=O)c4ccccc4)C21)C3(C)C (stereo not drawn) + CNCc1ccccc1-c1csc(C(C)Nc2nc(C)nc3cc(OC)c(OC)cc23)c1
1.13%
